- system name: NPY Y2 receptor (Homo sapiens, UniProt P49146)
- Sequence (P49146 1-381): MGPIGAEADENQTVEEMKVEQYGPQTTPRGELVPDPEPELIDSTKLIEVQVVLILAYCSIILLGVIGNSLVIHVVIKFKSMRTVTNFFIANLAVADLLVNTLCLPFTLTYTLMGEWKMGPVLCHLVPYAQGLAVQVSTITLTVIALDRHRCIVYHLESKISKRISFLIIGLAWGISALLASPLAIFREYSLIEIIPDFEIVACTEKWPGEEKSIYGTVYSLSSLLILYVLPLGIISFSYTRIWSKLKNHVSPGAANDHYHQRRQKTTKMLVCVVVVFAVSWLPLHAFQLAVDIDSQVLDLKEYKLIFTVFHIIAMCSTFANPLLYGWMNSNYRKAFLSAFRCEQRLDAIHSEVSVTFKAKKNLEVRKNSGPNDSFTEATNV
- test protocol: Neuropeptide Y2 radioligand binding assay ([125I]PYY, KAN-Ts membranes)
- applied conditions: KAN-Ts membranes endogenously expressing Y2, [125I]PYY (80 pM), 1 h at rt
pIC50: −log10 of the molar value.
pIC50 values by entry
measure: pIC50

CCC(CC)C(=O)Nc1ccc(N2CCN(C(c3ccccc3)c3nc4ccccc4o3)CC2)c(C#N)c1 (centres unmarked)    8.15
CCC(CC)C(=O)Nc1ccc(N2CCN(C(c3ncco3)C3CC3)CC2)c(F)c1 (centres unmarked)    5.82
Cc1cc(NC(=O)C(C)C)ccc1N1CCN(C(c2ccccc2)c2ncco2)CC1 (centres unmarked)    5.59
CCC(CC)C(=O)Nc1ccc(N2CCN(C(c3ccccn3)c3ncco3)CC2)c(F)c1 (centres unmarked)    6.10
CCC(CC)C(=O)Nc1ccc(N2CCN(C(c3ncco3)C3CCCC3)CC2)c(F)c1 (centres unmarked)    6.51
CCC(CC)C(=O)Nc1ccc(N2CCN(C(c3ccccc3)c3ncccn3)CC2)c(F)c1 (centres unmarked)    7.28
CCC(CC)C(=O)Nc1ccc(N2CCN(C(c3ccccc3)c3nnc(C(CC)CC)o3)CC2)c(F)c1 (centres unmarked)    7.70
CCC(CC)C(=O)Nc1ccc(N2CCN(C(c3ccccc3)c3nc4ccccc4o3)CC2)c(F)c1 (centres unmarked)    7.74
CCC(CC)C(=O)Nc1ccc(N2CCN(C(c3ccccc3)c3ccc(Cl)cc3)CC2)c(F)c1 (centres unmarked)    6.35
CCC(CC)C(=O)Nc1ccc(N2CCN(C(c3ccccc3)c3ncno3)CC2)c(F)c1 (centres unmarked)    6.66
CC(C)C(=O)Nc1ccc(N2CCN(C(c3ccccc3)c3ncco3)CC2)c(F)c1 (centres unmarked)    6.49
CCC(CC)C(=O)Nc1cc(F)c(N2CCN(C(c3ccccc3)c3ncco3)CC2)c(F)c1 (centres unmarked)    7.30
CCC(CC)C(=O)Nc1ccc(N2CCN(C(c3ccccc3)c3cc(C)no3)CC2)c(F)c1 (centres unmarked)    7.92
CCc1nnc(C(c2ccccc2)N2CCN(c3ccc(NC(=O)C(CC)CC)cc3F)CC2)o1 (centres unmarked)    7.41
CCC(CC)C(=O)Nc1ccc(N2CCN(C(c3ccccc3)c3ncco3)CC2)c(F)c1 (single isomer, unassigned) [Compound 60]    7.47
CCC(CC)C(=O)Nc1ccc(N2CCN(C(c3ccccc3)c3ncco3)CC2)c(Br)c1 (centres unmarked)    7.80
CCC(CC)C(=O)Nc1ccc(N2CCN(C(c3ccccc3)c3ncco3)CC2)c(C#N)c1 (centres unmarked)    8.30
O=C(Nc1ccc(N2CCN(C(c3ccccc3)c3ncco3)CC2)c(F)c1)C1CCCC1 (centres unmarked) [Compound 54]    7.02
CCc1nc(C(c2ccccc2)N2CCN(c3ccc(NC(=O)C(CC)CC)cc3F)CC2)no1 (centres unmarked)    7.64
CCC(CC)C(=O)Nc1ccc(N2CCN(C(c3ccccc3)c3ncco3)CC2)c(C)c1 (centres unmarked)    7.12
CCC(CC)NC(=O)c1ccc(N2CCN(C(c3ccccc3)c3ncco3)CC2)c(F)c1 (centres unmarked)    5.92
CCC(CC)C(=O)Nc1ccc(N2CCN(C(c3ccccc3)c3nnc(C(C)C)o3)CC2)c(F)c1 (centres unmarked)    7.37
CCC(CC)C(=O)Nc1ccc(N2CCN(C(c3ccc(C#N)cc3)c3ncco3)CC2)c(C#N)c1 (centres unmarked)    7.48
CC(CC(F)(F)F)C(=O)Nc1ccc(N2CCN(C(c3ccccc3)c3ncco3)CC2)c(F)c1 (centres unmarked)    6.44
N#Cc1cc(NC(=O)C2CCC(F)(F)CC2)ccc1N1CCN(C(c2ccccc2)c2ncco2)CC1 (centres unmarked)    5.44
CCC(CC)C(=O)Nc1ccc(N2CCN(C(c3ccccc3)c3ccccc3)CC2)c(F)c1    7.48
N#Cc1cc(NC(=O)C2CCC2)ccc1N1CCN(C(c2ccccc2)c2ncco2)CC1 (centres unmarked)    7.00
CCC(CC)C(=O)Nc1ccc(N2CCN(C(c3ncco3)C3CCC3)CC2)c(F)c1 (centres unmarked)    6.39

###

- system name: NPY Y2 receptor (Homo sapiens)
- test protocol: Neuropeptide Y2 radioligand binding assay ([125I]PYY, KAN-Ts membranes)
- applied conditions: KAN-Ts membranes endogenously expressing Y2, [125I]PYY (80 pM), 1 h at rt
pIC50: −log10 of the molar value.
Reported pIC50 values for a set of compounds
measure: pIC50

CCC(CC)C(=O)Nc1ccc(N2CCN(C(c3ccccc3)C3CCCC3)CC2)c(F)c1 (stereo not shown)    6.70
CCC(CC)C(=O)Nc1ccc(N2CCN(C(c3ncco3)C3CCCCC3)CC2)c(F)c1 (stereo not shown)    6.37
CCC(CC)C(=O)Nc1ccc(N2CCN(C(c3cccc(F)c3)c3ncco3)CC2)c(C#N)c1 (stereo not shown)    8.15
Cc1nc(C(c2ccc(OC(F)(F)F)cc2)N2CCN(c3ccc(NC(=O)C4CCOC4)cc3F)CC2)no1 (stereo not shown)    6.37
Cc1cccc(Nc2ccc(N3CCN(C(c4ccccc4)c4ncco4)CC3)c(F)c2)n1 (stereo not shown)    5.33
CCC(CC)C(=O)Nc1ccc(N2CCN(C(c3ccccc3)c3noc(-c4ccccc4)n3)CC2)c(F)c1 (stereo not shown)    7.41
O=C(Nc1ccc(N2CCN(C(c3ccccc3)c3ncco3)CC2)c(F)c1)C1CCCC1 (single isomer, unassigned) [Compound 126]    6.47
CCC(CC)C(=O)Nc1ccc(N2CCN(C(c3ccc(F)cc3)c3ncco3)CC2)c(F)c1 (stereo not shown)    6.11
CC[C@@H](C)C(=O)Nc1ccc(N2CCN(C(c3ccccc3)c3ncco3)CC2)c(C#N)c1 (stereo in doubt)    7.49
CCC(CC)C(=O)Nc1ccc(N2CCN(C(c3ccccc3)c3cccnc3)CC2)c(F)c1 (stereo not shown)    7.40
CCC(CC)C(=O)Nc1ccc(N2CCN(C(c3ccccn3)c3ncco3)CC2)c(C#N)c1 (stereo not shown)    6.82
O=C(Nc1ccc(N2CCN(C(c3ccccc3)c3ncco3)CC2)c(F)c1)C1CCCCC1 (stereo not shown)    5.92
CCC(CC)C(=O)Nc1ccc(N2CCN(C(c3ccc(OC(F)(F)F)cc3)c3noc(C)n3)CC2)c(F)c1 (stereo not shown)    7.19
CCC(CC)C(=O)Nc1ccc(N2CCN(C(c3ccccc3)C3CCC3)CC2)c(F)c1 (stereo not shown)    7.28
CCC(CC)C(=O)Nc1ccc(N2CCN(C(c3ccc(Cl)cc3)C3CC3)CC2)c(F)c1 (stereo not shown)    6.14
CCC(CC)C(=O)Nc1ccc(N2CCN(C(c3ccc(F)cc3)C3CCC3)CC2)c(F)c1 (stereo not shown)    6.60
CCC(CC)C(=O)Nc1ccc(N2CCN(C(c3ccccc3)c3noc(C(C)C)n3)CC2)c(F)c1 (stereo not shown)    7.66
CCC(CC)C(=O)Nc1ccc(N2CCN(C(c3ccccc3)c3nc(-c4ccccc4)no3)CC2)c(F)c1 (stereo not shown)    7.15
CCC(CC)C(=O)Nc1ccc(N2CCN(C(c3ccccc3)c3nccn3C)CC2)c(F)c1 (stereo not shown)    6.77
CCC(CC)C(=O)Nc1ccc(N2CCN(C(c3ccccc3)c3noc(C(F)(F)F)n3)CC2)c(F)c1 (stereo not shown)    6.92
CCC(CC)C(=O)Nc1ccc(N2CCN(C(c3ccc(F)cc3)c3ncco3)CC2)c(C#N)c1 (stereo not shown)    7.68
CCC(CC)C(=O)Nc1ccc(N2CCN(C(c3ccccc3)c3nccs3)CC2)c(F)c1 (stereo not shown)    7.55
Cc1cc(NC(=O)C2CCC2)ccc1N1CCN(C(c2ccccc2)c2ncco2)CC1 (stereo not shown)    5.85
Cc1cc(NC(=O)C2CC2)ccc1N1CCN(C(c2ccccc2)c2ncco2)CC1 (stereo not shown)    5.77
Cc1ccccc1Nc1ccc(N2CCN(C(c3ccccc3)c3ncco3)CC2)c(F)c1 (stereo not shown)    6.15
Cc1noc(C)c1C(=O)Nc1ccc(N2CCN(C(c3ccccc3)c3ncco3)CC2)c(F)c1 (stereo not shown)    6.85
CCC(CC)C(=O)Nc1ccc(N2CCN(C(c3ccccn3)c3ccccn3)CC2)c(F)c1    7.27
CCC(CC)C(=O)Nc1ccc(N2CCN(C(C(C)=O)c3ccccc3)CC2)c(F)c1 (stereo not shown)    6.42
